- Test system: Vero cells
- measurement-description: Cytotoxicity in Vero cells
- Assay type: cell-based

{"columns": ["compound", "IC50"],
 "data": [
  ["Cc1cn(C2OC(CO)C(CO)C2F)c(=O)nc1N (stereo not shown) [Compound 11 (Series 2)]", "> 100 µM"],
  ["Cc1cn(C2CC(CO)C(CO)O2)c(=O)[nH]c1=O (stereo not shown) [Compound 4 (Series 1)]", "> 100 µM"],
  ["CN(O)C1C(CO)OC(n2cc(F)c(=O)[nH]c2=O)C1F (stereo not shown) [Compound 61 (Series 2)]", "> 100 µM"],
  ["Cc1cn(C2CC(CO)N(C)O2)c(=O)[nH]c1=O (stereo not shown) [Compound 40 (Series 2)]", "> 100 µM"]
]}

###

- Tested on: HBV
- measurement-description: Cell culture assay for anti-HBV activity (2.2.15 cells, HBV DNA in medium by Southern blot)
- Type: cell-based, Hepatitis B virus
- test-conditions: read-out: Anti-HBV EC50
pEC50: −log10 of the molar value.

{"columns": ["molecule", "pEC50"],
 "data": [
  ["Cc1cn(C2OC(CO)C(CO)C2F)c(=O)[nH]c1=O (stereo not drawn) [Compound 12 (Series 2)]", "> 5.00"],
  ["Cc1cn(C2CC(CO)C(CO)O2)c(=O)[nH]c1=O (stereo not drawn) [Compound 20 (Series 1)]", 6.64],
  ["Cc1cn(C2CC(CO)N(C)O2)c(=O)[nH]c1=O (stereo not drawn) [Compound 40 (Series 2)]", "< 5.00"],
  ["Cc1cn(C2CC(CO)C(CO)O2)c(=O)[nH]c1=O (stereo not drawn) [Compound 4 (Series 1)]", "< 5.00"],
  ["CN(O)C1C(CO)OC(n2cc(F)c(=O)[nH]c2=O)C1F (stereo not drawn) [Compound 61 (Series 2)]", "< 5.00"],
  ["Cc1cn(C2OC(CO)C(CO)C2F)c(=O)nc1N (stereo not drawn) [Compound 11 (Series 2)]", "> 5.00"]
]}

###

- measurement-description: Cytotoxicity in Vero cells
- Type: cell-based
- test-conditions: African green monkey

{"columns": ["molecule", "IC50 at 10 day"],
 "data": [
  ["CN(O)C1C(CO)OC(n2cc(F)c(=O)[nH]c2=O)C1F (centres unmarked) [Compound 60 (Series 2)]", "> 100 µM"],
  ["CNC1C(CO)OC(n2ccc(=O)[nH]c2=O)C1F (centres unmarked) [Compound 69 (Series 2)]", "> 100 µM"],
  ["Nc1ncnc2c1ncn2C1OC(CO)C(CO)C1F (centres unmarked) [Compound 23 (Series 2)]", "> 100 µM"],
  ["CN(O)C1C(CO)OC(n2ccc(N)nc2=O)[C@H]1F (some centres unmarked) [Compound 58 (Series 2)]", "~106 µM"],
  ["CC1C(CO)OC(n2ccc(N)nc2=O)C1F (centres unmarked) [Compound 20 (Series 2)]", "> 100 µM"],
  ["Cc1cn(C2OC(CO)C(CO)C2F)c(=O)nc1N (centres unmarked) [Compound 2 (Series 2)]", "> 100 µM"],
  ["Cc1cn(C2CC(CO)=NO2)c(=O)[nH]c1=O (centres unmarked) [Compound 28 (Series 2)]", "> 100 µM"],
  ["Cc1cn(C2OC(CO)C(N(C)O)[C@@H]2F)c(=O)[nH]c1=O (some centres unmarked) [Compound 55 (Series 2)]", "> 100 µM"]
]}

###

Readings of EC50 for the listed molecules
- Tested on: HBV
- measurement-description: Cell culture assay for anti-HBV activity (2.2.15 cells, HBV DNA in medium by Southern blot)
- Type: cell-based, Hepatitis B virus
- test-conditions: Hepatitis B virus; read-out: Anti-HBV EC50
observed-property: EC50

{"columns": ["molecule", "value"],
 "data": [
  ["CCCCN(O)C1C(CO)OC(n2cc(C)c(=O)[nH]c2=O)C1F (stereo not shown) [Compound 71 (Series 2)]", "< 10 µM"],
  ["CC1C(CO)OC(n2cc(F)c(N)nc2=O)C1F (stereo not shown) [Compound 21 (Series 2)]", "> 10 µM"],
  ["Cc1cn(C2OC(CO)C(CO)C2F)c(=O)nc1N (stereo not shown) [Compound 2 (Series 2)]", "> 10 µM"],
  ["O=c1ccn(C2OC(CO)C(CO)C2F)c(=O)[nH]1 (stereo not shown) [Compound 13 (Series 2)]", "> 10 µM"],
  ["CN(O)C1C(CO)OC(n2ccc(N)nc2=O)C1F (stereo not shown) [Compound 59 (Series 2)]", "≤ 10 µM"],
  ["Cc1cn(C2OC(CO)C(C)C2F)c(=O)[nH]c1=O (stereo not shown) [Compound 22 (Series 2)]", "> 10 µM"],
  ["CN1OC(n2ccc(N)nc2=O)CC1CO (stereo not shown) [Compound 39 (Series 2)]", "> 10 µM"]
]}

###

- Test system: HIV-1
- measurement-description: Anti-HIV evaluation in human PBM cells
- Type: cell-based
- test-conditions: Human immunodeficiency virus 1, PBMC, HIV-1
- Text: Human PBM cells from healthy donors, seronegative for HIV-1 and HBV, are isolated by a single-step Ficoll-Hypaque discontinuous gradient centrifugation and propagated as described previously (Schinazi et al., Antimicrobial Agents Chemother., 1990, 34:1061; 1992, 36:2423; 1993, 37:875). […]
pEC50: −log10 of the molar value.

{"columns": ["molecule", "pEC50"],
 "data": [
  ["CN1OC(n2ccc(N)nc2=O)CC1CO (stereo not drawn) [Compound 39 (Series 2)]", "< 4.00"],
  ["Nc1ncnc2c1ncn2C1OC(CO)C(CO)C1F (stereo not drawn) [Compound 23 (Series 2)]", 4.02],
  ["CNC1C(CO)OC(n2cc(C)c(=O)[nH]c2=O)C1F (stereo not drawn) [Compound 68 (Series 2)]", "< 4.00"],
  ["Nc1ccn(C2OC(CO)C(CO)C2F)c(=O)n1 (stereo not drawn) [Compound 7 (Series 2)]", 5.59],
  ["CC1=CC(C2CC(CO)N(C)O2)C(=O)NC1=O (stereo not drawn) [Compound 5 (Series 2)]", "< 4.00"],
  ["CNC1C(CO)OC(n2ccc(N)nc2=O)C1F (stereo not drawn) [Compound 70 (Series 2)]", 5.62],
  ["Cc1cn(C2OC(CO)C(CO)C2F)c(=O)nc1N (stereo not drawn) [Compound 2 (Series 2)]", "< 4.00"],
  ["Cc1cn(C2CC(CI)C(CO)O2)c(=O)[nH]c1=O (stereo not drawn) [Compound 5 (Series 1)]", "< 4.00"],
  ["CCOP(=O)(CCC1=NOC(n2cc(C)c(=O)[nH]c2=O)C1)OCC (stereo not drawn) [Compound 33 (Series 2)]", "< 4.00"]
]}

###

Readings of pEC50 for the listed compounds
- System: HIV-1
- measurement-description: Anti-HIV evaluation in human PBM cells
- Assay type: cell-based
- test-conditions: Human immunodeficiency virus 1, PBMC, HIV-1
pEC50: −log10 of the molar value.
observed-property: pEC50

{"columns": ["compound", "observed-property", "value"],
 "data": [
  ["Cc1cn(C2CC(CCl)C(CO)O2)c(=O)[nH]c1=O (centres unmarked) [Compound 3 (Series 1)]", "pEC50", "< 4.00"],
  ["CN(O)C1C(CO)OC(n2cc(F)c(=O)[nH]c2=O)C1F (centres unmarked) [Compound 60 (Series 2)]", "pEC50", "< 4.00"],
  ["CCCCN(O)C1C(CO)OC(n2cc(C)c(=O)[nH]c2=O)C1F (centres unmarked) [Compound 71 (Series 2)]", "pEC50", 4.09],
  ["Cc1cn(C2OC(CO)C(N(C)O)[C@@H]2F)c(=O)[nH]c1=O (some centres unmarked) [Compound 55 (Series 2)]", "pEC50", 4.17],
  ["CNC1C(CO)OC(n2ccc(=O)[nH]c2=O)C1F (centres unmarked) [Compound 69 (Series 2)]", "pEC50", "< 4.00"],
  ["O=c1ccn(C2OC(CO)C(CO)C2F)c(=O)[nH]1 (centres unmarked) [Compound 13 (Series 2)]", "pEC50", "< 4.00"],
  ["CC1C(CO)OC(n2ccc(N)nc2=O)C1F (centres unmarked) [Compound 20 (Series 2)]", "pEC50", "< 4.00"],
  ["CN(O)C1C(CO)OC(n2ccc(N)nc2=O)C1F (centres unmarked) [Compound 59 (Series 2)]", "pEC50", 6.31]
]}

###

Readings of pEC50 for the listed compounds
- Test system: HBV
- measurement-description: Cell culture assay for anti-HBV activity (2.2.15 cells, HBV DNA in medium by Southern blot)
- Format: cell-based, Hepatitis B virus
- test-conditions: Hepatitis B virus; read-out: Anti-HBV EC50
pEC50: −log10 of the molar value.
observed-property: pEC50

{"columns": ["compound", "observed-property", "value"],
 "data": [
  ["CNC1C(CO)OC(n2ccc(=O)[nH]c2=O)C1F (stereo not drawn) [Compound 69 (Series 2)]", "pEC50", "< 5.00"],
  ["Nc1ccn(C2OC(CO)C(CCO)C2F)c(=O)n1 (stereo not drawn) [Compound 24 (Series 2)]", "pEC50", "< 5.00"],
  ["CN(O)C1C(CO)OC(n2cc(F)c(=O)[nH]c2=O)C1F (stereo not drawn) [Compound 60 (Series 2)]", "pEC50", "< 5.00"],
  ["Cc1cn(C2OC(CO)C(CO)C2F)c(=O)[nH]c1=O (stereo not drawn) [Compound 1 (Series 2)]", "pEC50", "< 5.00"],
  ["Cc1cn(C2OC(CO)C(N(C)O)[C@@H]2F)c(=O)[nH]c1=O (stereo partly drawn) [Compound 55 (Series 2)]", "pEC50", "< 5.00"],
  ["CNC1C(CO)OC(n2cc(C)c(=O)[nH]c2=O)C1F (stereo not drawn) [Compound 68 (Series 2)]", "pEC50", "< 5.00"],
  ["Cc1cn(C2CC(CI)C(CO)O2)c(=O)[nH]c1=O (stereo not drawn) [Compound 5 (Series 1)]", "pEC50", "< 5.00"],
  ["CN(O)C1C(CO)OC(n2ccc(N)nc2=O)[C@H]1F (stereo partly drawn) [Compound 58 (Series 2)]", "pEC50", 6.19],
  ["Cc1cn(C2CC(CO)N(C)O2)c(=O)[nH]c1=O (stereo not drawn) [Compound 6 (Series 2)]", "pEC50", "< 5.00"],
  ["Cc1cn(C2CC(CO)=NO2)c(=O)[nH]c1=O (stereo not drawn) [Compound 28 (Series 2)]", "pEC50", "< 5.00"],
  ["Cc1cn(C2CC(CCl)C(CO)O2)c(=O)[nH]c1=O (stereo not drawn) [Compound 3 (Series 1)]", "pEC50", "< 5.00"],
  ["CC1=CC(C2CC(CO)N(C)O2)C(=O)NC1=O (stereo not drawn) [Compound 5 (Series 2)]", "pEC50", "< 5.00"],
  ["CC1C(CO)OC(n2ccc(N)nc2=O)C1F (stereo not drawn) [Compound 20 (Series 2)]", "pEC50", "< 5.00"],
  ["Nc1ncnc2c1ncn2C1OC(CO)C(CO)C1F (stereo not drawn) [Compound 23 (Series 2)]", "pEC50", 5.98],
  ["Cc1cn(C2CC3COCC3O2)c(=O)[nH]c1=O (stereo not drawn) [Compound 1 (Series 1)]", "pEC50", "< 5.00"],
  ["Nc1ccn(C2OC(CO)C(CO)C2F)c(=O)n1 (stereo not drawn) [Compound 7 (Series 2)]", "pEC50", 7.40],
  ["CNC1C(CO)OC(n2ccc(N)nc2=O)C1F (stereo not drawn) [Compound 70 (Series 2)]", "pEC50", "≥ 5.00"],
  ["Nc1nc(=O)n(C2OC(CO)C(CO)C2F)cc1F (stereo not drawn) [Compound 10 (Series 2)]", "pEC50", 6.89]
]}
